Attribution: paper PMC10726135

target.under.test: HNF4alpha8 (COS-7 nuclear extract) (Homo sapiens, UniProt P41235-5 1-452)
Sequence: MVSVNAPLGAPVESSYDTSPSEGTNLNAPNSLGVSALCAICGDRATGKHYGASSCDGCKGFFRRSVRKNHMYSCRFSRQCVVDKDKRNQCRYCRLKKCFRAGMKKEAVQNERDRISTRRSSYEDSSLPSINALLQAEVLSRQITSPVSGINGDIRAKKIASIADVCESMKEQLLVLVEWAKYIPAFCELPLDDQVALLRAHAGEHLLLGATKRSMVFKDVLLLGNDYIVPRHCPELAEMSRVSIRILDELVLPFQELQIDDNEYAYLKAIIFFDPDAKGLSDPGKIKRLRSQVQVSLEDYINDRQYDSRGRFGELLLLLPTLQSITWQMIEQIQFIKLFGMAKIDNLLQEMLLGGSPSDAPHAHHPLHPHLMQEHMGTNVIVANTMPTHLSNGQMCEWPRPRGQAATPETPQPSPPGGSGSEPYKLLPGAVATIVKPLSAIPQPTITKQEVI
assay.details: protein-binding microarray; COS-7 nuclear extract on double-stranded Agilent 4x180k PBM; binding buffer, salt, pH and temperature not given in the material; high values mean tight binding
cond: chain copies: 2; label: 3' end of strand 1 on the slide; dsDNA, one strand shown
In all, about 18,000 sequences were measured (“log2 normalized intensity”: median about 0.36, highest 2% from about 7.3 on). The list comes from a sample in which the highest values are over-represented; it also holds close analogues and randomly drawn sequences.
measured.endpoint: binding signal (log2 normalized intensity)
Numbers only, in log2 normalized intensity.

INSERT INTO measurements (seq_string, target_under_test, recorded_measurement) VALUES
  ('TGCAGTTTCCCTATTCTCAGTGATATAAAAGCCTAGGGAGATTAGAGTATCGGTCGA', 'HNF4alpha8 (COS-7 nuclear extract) (Homo sapiens, UniProt P41235-5 1-452)', 0.942),
  ('AGGAGGCACTGATAAGCGTATTTCAACCTTGCCTAGGGAGATTAGAGTATCGGTCGA', 'HNF4alpha8 (COS-7 nuclear extract) (Homo sapiens, UniProt P41235-5 1-452)', 0.651),
  ('ATCTCAGCTCACTGTAACCTTTGCCCCCCTGCCTAGGGAGATTAGAGTATCGGTCGA', 'HNF4alpha8 (COS-7 nuclear extract) (Homo sapiens, UniProt P41235-5 1-452)', 9.22);

Request: Quick one: binding signal of `CTTCAAGTCAGTCAAAATGAATAGTCCTTTGCCTAGGGAGATTAGAGTATCGGTCGA` ?
Result: 0.855

* * *

Please respond with reported binding signal for every item in the list.
target.under.test: HNF4alpha8 (COS-7 nuclear extract) (Homo sapiens, UniProt P41235-5 1-452)
Sequence: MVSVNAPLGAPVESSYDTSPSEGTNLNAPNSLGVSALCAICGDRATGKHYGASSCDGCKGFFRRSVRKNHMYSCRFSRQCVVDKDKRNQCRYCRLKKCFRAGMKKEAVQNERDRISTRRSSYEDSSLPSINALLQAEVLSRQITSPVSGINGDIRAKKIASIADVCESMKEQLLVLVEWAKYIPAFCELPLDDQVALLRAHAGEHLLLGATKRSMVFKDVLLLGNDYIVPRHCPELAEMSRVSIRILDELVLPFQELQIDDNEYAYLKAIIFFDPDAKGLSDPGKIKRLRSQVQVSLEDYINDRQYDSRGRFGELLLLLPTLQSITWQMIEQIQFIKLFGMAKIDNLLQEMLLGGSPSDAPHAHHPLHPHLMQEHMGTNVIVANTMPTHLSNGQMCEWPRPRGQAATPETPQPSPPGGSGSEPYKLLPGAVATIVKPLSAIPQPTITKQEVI
assay.details: protein-binding microarray; COS-7 nuclear extract on double-stranded Agilent 4x180k PBM; binding buffer, salt, pH and temperature not given in the material; high values mean tight binding
cond: chain copies: 2; label: 3' end of strand 1 on the slide; dsDNA, one strand shown
Whole data set: some 18,000 sequences, median “log2 normalized intensity” near 0.36, cut for the highest 2% near 7.3. The full list was thinned out, with the highest values kept by preference.
Respond with the figure and its unit, in that order.

Below are worked cases with known answers.
INSERT INTO measurements (seq_string, measured_endpoint, recorded_measurement) VALUES
  ('CTGCAGTGTGACCTTTGCCTTCTTGACATCGCCTAGGGAGATTAGAGTATCGGTCGA', 'binding signal', '6.8 log2 normalized intensity'),
  ('GCTAAGAGACAGCTCCACAGCTGGACTTTGGCCTAGGGAGATTAGAGTATCGGTCGA', 'binding signal', '5.9 log2 normalized intensity'),
  ('CTAATGGAGAGGATGGGGACAAAGGTCAAGGCCTAGGGAGATTAGAGTATCGGTCGA', 'binding signal', '8.12 log2 normalized intensity'),
  ('CCTCCTGTGGTAATAAGTTGGTGGACGCTGGCCTAGGGAGATTAGAGTATCGGTCGA', 'binding signal', '1.13 log2 normalized intensity'),
  ('GGTGAAATAGCTGAACTATTTAAGGCCTTTGCCTAGGGAGATTAGAGTATCGGTCGA', 'binding signal', '0.507 log2 normalized intensity');

Could you tell me binding signal for each of these sequences? They are listed below.
1. CAGGAGTCGGGAGGTAGGGGTGGCGGGTTGGCCTAGGGAGATTAGAGTATCGGTCGA
2. TCAGGGGTCAATGTGCACATTCGAAGTTTTGCCTAGGGAGATTAGAGTATCGGTCGA
3. TTTGATGGACATTGCTGGTGGTGGTAGATCGCCTAGGGAGATTAGAGTATCGGTCGA
4. TTACCCTGCAGTGTGACCTTTGCCTTCTTGGCCTAGGGAGATTAGAGTATCGGTCGA
5. AAAGATGTTTAAATAGTGATAATGGATGGCGCCTAGGGAGATTAGAGTATCGGTCGA
6. AGGATGGGCCATGACCTTTACCCCCATTTGGCCTAGGGAGATTAGAGTATCGGTCGA

Result:
1. 0.403 log2 normalized intensity
2. 4.86 log2 normalized intensity
3. 1.45 log2 normalized intensity
4. 8.09 log2 normalized intensity
5. 0.702 log2 normalized intensity
6. 8.39 log2 normalized intensity

* * *

target.under.test: HNF4alpha8 (COS-7 nuclear extract) (Homo sapiens, UniProt P41235-5 1-452)
Sequence: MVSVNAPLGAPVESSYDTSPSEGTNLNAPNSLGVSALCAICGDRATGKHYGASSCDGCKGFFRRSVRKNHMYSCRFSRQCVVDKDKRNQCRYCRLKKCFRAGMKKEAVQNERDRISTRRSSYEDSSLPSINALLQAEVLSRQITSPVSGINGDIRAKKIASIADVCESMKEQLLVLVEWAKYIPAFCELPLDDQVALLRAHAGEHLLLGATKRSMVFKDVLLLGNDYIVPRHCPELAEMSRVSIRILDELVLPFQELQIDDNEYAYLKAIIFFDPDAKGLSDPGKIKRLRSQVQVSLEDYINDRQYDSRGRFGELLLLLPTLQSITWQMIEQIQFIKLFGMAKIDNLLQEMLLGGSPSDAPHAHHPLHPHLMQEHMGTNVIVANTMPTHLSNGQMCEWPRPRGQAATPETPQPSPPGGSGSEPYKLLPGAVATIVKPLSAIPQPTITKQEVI
assay.details: protein-binding microarray; COS-7 nuclear extract on double-stranded Agilent 4x180k PBM; binding buffer, salt, pH and temperature not given in the material; high values mean tight binding
cond: chain copies: 2; label: 3' end of strand 1 on the slide; dsDNA, one strand shown
Over roughly 18,000 sequences, “log2 normalized intensity” has its median near 0.36; the highest 2% begin near 7.3. Shown is part of a subset that was picked to be rich in the highest values.
Classify by measured binding signal: met if it is equal to or exceeds 3 log2 normalized intensity, not met if it is smaller.

Illustrative cases are given below, each with its answer.
INSERT INTO assay_data (seq_string, target_under_test, answer_label) VALUES
  ('GACTATTTTATTTTCCCCCTTTGAAGTCTGGCCTAGGGAGATTAGAGTATCGGTCGA', 'HNF4alpha8 (COS-7 nuclear extract) (Homo sapiens, UniProt P41235-5 1-452)', 'met'),
  ('TCTTAGGAAAGAACAGGTCAAAGGTCAGTTGCCTAGGGAGATTAGAGTATCGGTCGA', 'HNF4alpha8 (COS-7 nuclear extract) (Homo sapiens, UniProt P41235-5 1-452)', 'met'),
  ('TTTGCCAAAGCATAGCAAGAGTGACCTTTGGCCTAGGGAGATTAGAGTATCGGTCGA', 'HNF4alpha8 (COS-7 nuclear extract) (Homo sapiens, UniProt P41235-5 1-452)', 'met'),
  ('GGTTGTCAGACTGGTGTAGTGGGGAGGGCAGCCTAGGGAGATTAGAGTATCGGTCGA', 'HNF4alpha8 (COS-7 nuclear extract) (Homo sapiens, UniProt P41235-5 1-452)', 'not met'),
  ('TGACCTTTGCCTCATTCTTATTGCCTCATGGCCTAGGGAGATTAGAGTATCGGTCGA', 'HNF4alpha8 (COS-7 nuclear extract) (Homo sapiens, UniProt P41235-5 1-452)', 'met');

Request: Does the reported binding signal for `GGAAAGAACAGGTCAAAGGTCAGTTTCTTTGCCTAGGGAGATTAGAGTATCGGTCGA` fall at or above the 3 log2 normalized intensity mark?
Result: met
